Task for the reader: assign each of the following compounds its reported pIC50.
Biological target: mutant HIV reverse transcriptase with the Y181C mutation (Human immunodeficiency virus type 1 group M subtype B, UniProt P04585, Y768C)
Construct: mutations that occur in the reverse transcriptase segment of the pol gene; made in house
Assay: Analogous RT inhibition assay, Y181C mutant
Format: biochemical
Procedure: 100 μL reaction mixtures were initiated with a combination of primer-template substrate (10 nM final concentration) and dNTPs (0.6 μM dNTPs, 0.75 μM [^3H]-dGTP). […] Microtiter plates were incubated an additional 10 minutes at 37° C. prior to quantification via Topcount (Packard). […]
pIC50: −log10 of the molar value.

Example entries begin here.
[
  {
    "mol": "O=C(NCCO)c1[nH]c2ccc(Br)cc2c1S(=O)(=O)N1CCCCC1",
    "result": "> 6.00"
  },
  {
    "mol": "CON(C)S(=O)(=O)c1c(C(N)=O)[nH]c2ccc(Br)cc12",
    "result": "< 4.70"
  },
  {
    "mol": "O=C(NCc1ccccc1O)c1[nH]c2ccc(Br)cc2c1S(=O)(=O)N1CCCC1",
    "result": "> 6.00"
  },
  {
    "mol": "O=C(NCc1ccn[nH]1)c1[nH]c2ccc(Br)cc2c1S(=O)(=O)N1CCCC1",
    "result": "> 6.00"
  },
  {
    "mol": "O=C(NCc1ccccc1OC(F)F)c1[nH]c2ccc(Br)cc2c1S(=O)(=O)N1CCCC1",
    "result": "> 6.00"
  }
]

Please supply pIC50 for each of the following items, keeping them in order.
1. O=C(NCCO)c1[nH]c2ccc(Br)cc2c1S(=O)(=O)N1CCCC1
2. NC(=O)c1[nH]c2ccc(Br)cc2c1S(=O)(=O)N1CC=CC1
3. CN(C1CC1)S(=O)(=O)c1c(C(N)=O)[nH]c2ccc(Br)cc12
4. NC(=O)c1[nH]c2ccc(Br)cc2c1S(=O)(=O)NCCS(N)(=O)=O
5. O=C(NCc1cncs1)c1[nH]c2ccc(Br)cc2c1S(=O)(=O)N1CCCC1
6. NC(=O)c1[nH]c2ccc(Cl)cc2c1S(=O)(=O)NC1CCCCC1

Solution:
["> 6.00", "> 6.00", "4.70 to 6.00", "4.70 to 6.00", "> 6.00", "> 6.00"]
